B1: mRNA-splicing (parent)
chain: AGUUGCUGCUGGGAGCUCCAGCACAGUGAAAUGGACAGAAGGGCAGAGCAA

# Variants of: B1
# protocol_description: exon inclusion enrichment index; higher = more inclusion; WT1 exon 5 minigene, HEK293
Label yes when exon inclusion enrichment index is at or above 1; anything below gets no.

| variant_identifier | group |
| --- | --- |
| G5A U7C G8A U10C A25G G26U | yes |
| C6A U7A C9A U10A A25C G26U | yes |
| G5A C6G U7G C9A G41U G42A | no |
| C6A U7A C9A U10A A31U U32C | yes |
| G5C C6U G8C C9U U10G | yes |
| G5A C6U U7A G8A | no |
| C6A U7C C9A U10C C44G A45U | yes |
| U3C U4C G5A C6U U7A G8U C9A | no |
| G5A C6G U7G C9A G38U | no |
| C9A U10G | no |
| G5A U7C G8A U10G | yes |
| G5A U7C G8A U10C C22A A23G | yes |
| G5C C6U G8C C9U U10C G15U C16A | yes |
| G5C C6A U7C G8A U10A G13C | no |
| G5C C6G U7C U10C A45C G46A | yes |
| G5A C6G U7G C9A A23U | no |
| G5C C6U G8C C9U U10C G38A A39C | yes |
| G5A C6U U7A G8U C9A G12C G13A | no |
| G5C C6G U7C U10C C44U | yes |
| G5A C6U U7A G8U C9A G13U A14G | no |
| G5A C6U U7A G8U C9A G33U G34A | no |
| G5U G8U C9U C16A U17A | no |
